DMS-derived PSSM value, position F11 values for the sequences below.
- System: PABPC1 PABC
- Assay type: binding, human
- EXPERIMENTAL SETUP: DMS-BM library, bait PABPC1 PABC, prey ATXN2, peptide KSTLNPNAKEFNPRSF; F = wild type, row aa = residue at this position
Format: numeric value only, no unit, no commentary.

Consider the reported DMS-derived PSSM value, position F11 for these sequences:
KSTLNPNAKEFNPRSF F11K (KSTLNPNAKEKNPRSF) :: 0.006092
KSTLNPNAKEFNPRSF F11A (KSTLNPNAKEANPRSF) :: 0
KSTLNPNAKEFNPRSF F11G (KSTLNPNAKEGNPRSF) :: 0
KSTLNPNAKEFNPRSF F11E (KSTLNPNAKEENPRSF) :: 0
KSTLNPNAKEFNPRSF F11D (KSTLNPNAKEDNPRSF) :: 0

Now, please, on to the next sequence.
Exam item: Give the reported DMS-derived PSSM value, position F11 for KSTLNPNAKEFNPRSF F11H (KSTLNPNAKEHNPRSF) (system: PABPC1 PABC).
Marked response: 0

----------
# DMS PSSM value, S (position 15) per entry
- System: G3BP1 NFT2
- Type: binding, human
- EXPERIMENTAL SETUP: library DMS-CoV; bait G3BP1 NFT2; prey N; peptide APRITFGGPSDSTGSN; listed as aa = residue placed at this position; column sums to 1
Give a plain numeric answer without units written out.

APRITFGGPSDSTGSN S15L (APRITFGGPSDSTGLN) :: 0.01038
APRITFGGPSDSTGSN S15Q (APRITFGGPSDSTGQN) :: 0.01454
APRITFGGPSDSTGSN S15H (APRITFGGPSDSTGHN) :: 0.01115
APRITFGGPSDSTGSN S15F (APRITFGGPSDSTGFN) :: 0.2174

Exam item: Param item = APRITFGGPSDSTGSN S15Y (APRITFGGPSDSTGYN) ; retrieve measured DMS PSSM value, S (position 15).
Marked response: 0.1419

Exam item: Which DMS PSSM value, S (position 15) value belongs to APRITFGGPSDSTGSN S15M (APRITFGGPSDSTGMN) ?
Marked response: 0.006693

----------
- System: G3BP1 NFT2
- Format: binding, human
- EXPERIMENTAL SETUP: library DMS-CoV; bait G3BP1 NFT2; prey N; peptide APRITFGGPSDSTGSN; listed as aa = residue placed at this position; column sums to 1
Listing of entries alongside the reported DMS PSSM value, P (position 2).
// print number alone

Exam item: Would you mind telling me what DMS PSSM value, P (position 2) value was observed for APRITFGGPSDSTGSN P2G (AGRITFGGPSDSTGSN) ?
Marked response: 0

Exam item: So what does the record say about DMS PSSM value, P (position 2) for APRITFGGPSDSTGSN P2T (ATRITFGGPSDSTGSN) ?
Marked response: 0

Exam item: Query (sequence): APRITFGGPSDSTGSN P2S (ASRITFGGPSDSTGSN) ; field requested: DMS PSSM value, P (position 2)
Marked response: 0.0005858

Exam item: # DMS PSSM value, P (position 2) lookup, item APRITFGGPSDSTGSN P2H (AHRITFGGPSDSTGSN)
Marked response: 0

----------
- Test system: PABPC1 PABC
- Type: binding, human
- EXPERIMENTAL SETUP: DMS-BM library, bait PABPC1 PABC, prey ATXN2, TLNPNAKEFNPRSF(averaged) over the two overlapping peptides; K = wild type, row aa = residue at this position
Entries and their measured DMS-derived PSSM value (averaged), position K7 follow.
Answer with the value's number alone.

Recorded DMS-derived PSSM value (averaged), position K7, per entry:
TLNPNAKEFNPRSF(averaged) K7D (TLNPNADEFNPRSF) :: 0.01005
TLNPNAKEFNPRSF(averaged) K7N (TLNPNANEFNPRSF) :: 0.09977

Let's switch to this substance now.
Exam item: Quick one: DMS-derived PSSM value (averaged), position K7 for "TLNPNAKEFNPRSF" ?
Marked response: 0.01034

----------
- TGT: G3BP1 NTF2 (Homo sapiens)
- Sequence (Q13283 1-139): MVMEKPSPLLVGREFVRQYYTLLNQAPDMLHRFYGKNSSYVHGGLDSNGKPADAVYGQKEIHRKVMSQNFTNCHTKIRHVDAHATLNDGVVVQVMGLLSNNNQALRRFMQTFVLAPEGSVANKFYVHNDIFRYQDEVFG
- TEST DETAILS: biochemical
- Assay type: binding
- EXPERIMENTAL SETUP: KD
PROPERTY: Kd (µM)
Give the number; µM is assumed, so skip it.

Ac-APLITFGGPSDSTGSY-NH2 [N R14L] :: 3
Ac-APRITFGGPYDSTGSY-NH2 [N S21Y] :: 4.7
Ac-DPRITFGGPSDSTGSY-NH2 [N A12D] :: 2.7

Exam item: State the recorded Kd for this entry: Ac-APRITFGGFSDSTGSY-NH2 [N P20F]
Marked response: 14

----------
// reported DMS-derived PSSM value, position N7 for each item listed
- Test system: PABPC1 PABC
- Type: binding, human
- EXPERIMENTAL SETUP: DMS-BM library, bait PABPC1 PABC, prey ATXN2, peptide KSTLNPNAKEFNPRSF; N = wild type, row aa = residue at this position
// return just the number, without any unit appended

KSTLNPNAKEFNPRSF N7P (KSTLNPPAKEFNPRSF) :: 0
KSTLNPNAKEFNPRSF N7T (KSTLNPTAKEFNPRSF) :: 0.001519
KSTLNPNAKEFNPRSF N7G (KSTLNPGAKEFNPRSF) :: 0
KSTLNPNAKEFNPRSF N7L (KSTLNPLAKEFNPRSF) :: 0.04259

Okay, next one:
Exam item: // query DMS-derived PSSM value, position N7 value for entry KSTLNPNAKEFNPRSF N7A (KSTLNPAAKEFNPRSF)
Marked response: 0.01018

----------
Measured DMS-derived PSSM value, position N5 values are reported for all entries that follow.
- Tested on: PABPC1 PABC
- Format: binding, human
- EXPERIMENTAL SETUP: DMS-BM library, bait PABPC1 PABC, prey ATXN2, peptide KSTLNPNAKEFNPRSF; N = wild type, row aa = residue at this position
Field format: numeric only.

KSTLNPNAKEFNPRSF :: 0.9124
KSTLNPNAKEFNPRSF N5Y (KSTLYPNAKEFNPRSF) :: 0.01612

Kindly consider the entry below.
Exam item: # DMS-derived PSSM value, position N5 lookup, item KSTLNPNAKEFNPRSF N5D (KSTLDPNAKEFNPRSF)
Marked response: 0

Reference source: paper PMC12102759
